For each entry below, report its CC50 value.
system: MAGI-CCR5 cells viability, CellTiter-Glo ATP luminescence; test: MAGI-CCR5 and HeLa-R5-16 cytotoxicity, dose response, cytotoxicity control for HIV-1 fusion inhibitor project, cell-based, MAGI and MAGI-HeLa co-culture (AID 2286); conditions: measured here: MAGI + HeLa-R5-16 co-culture viability;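 further: cells exposed to compound for at least 64 h before ATP readout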;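 on viability: 100% = median of DMSO vehicle wells with no ATP signal meaning 0%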

Respectfully, I request CC50 for each entry included below.
1. CN(C)S(=O)(=O)c1cccc(-c2nn(-c3ccccc3)cc2/C=C2\SC(=S)N(CC(=O)O)C2=O)c1
2. COc1cc(/C=C2/SC(=S)N(Cc3ccccc3)C2=O)ccc1OCC(=O)O
3. O=C(NN1C(=O)/C(=C/c2ccc(O)c([N+](=O)[O-])c2)SC1=S)c1ccccc1Cl
4. Nc1c(S(=O)(=O)O)cc(NC(=O)c2ccccc2)c2c1C(=O)c1ccccc1C2=O
5. CC1(c2ccccc2)CC(C)(C)N2C(=O)/C(=C3\SC(=S)NC3=O)c3cccc1c32 (stereo not drawn)

Result:
> 50 µM
> 50 µM
> 50 µM
49.2 µM
37 µM

###

assay: MAGI-CCR5 and HeLa-R5-16 cytotoxicity, dose response, cytotoxicity control for HIV-1 fusion inhibitor project, cell-based, MAGI and MAGI-HeLa co-culture (AID 2286); settings: MAGI-CCR5 cells viability, CellTiter-Glo ATP luminescence; at 50 µM (top of the series);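 further: cells exposed to compound for at least 64 h before ATP readout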;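 on viability: 100% = median of DMSO vehicle wells with no ATP signal meaning 0%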
Experimental Readout: viability (%)
One number for each entry, in %.

Here's what some known entries look like.
>  <Compound>
CC(C)COc1ccc(-c2nn(-c3ccccc3)cc2/C=C2/SC(=S)N(CC(=O)O)C2=O)cc1

>  <viability / %>
81.5

$$$$
>  <Compound>
O=C(O)CN1C(=O)/C(=C\c2cccc(OCc3ccc(Cl)cc3Cl)c2)SC1=S

>  <viability / %>
95.6

$$$$
>  <Compound>
O=C(O)COc1ccccc1/C=N/NC(=O)CSc1nnc(SCc2cccc3ccccc23)s1

>  <viability / %>
92.5

$$$$

For every listed record, write down its viability.
1. Cc1ccc(Cl)cc1N1CCN(C(=O)Cc2c(C(=O)O)[nH]c3ccc(Cl)cc23)CC1
2. CCOc1cc(Br)cc(C(c2c(C(=O)O)[nH]c3ccccc23)c2c(C(=O)O)[nH]c3ccccc23)c1O
3. CC(C)CS(=O)(=O)C1=NSC2=NC(=O)/C(=C\c3ccc(OC(=O)c4ccco4)cc3)C(=N)N21
4. Cc1noc(NS(=O)(=O)c2ccc(NC(=O)Nc3ccc(Cl)c(Cl)c3)cc2)c1C
5. CC(C)(C)c1ccc2c(c1)OC(C(=O)N/N=C\c1ccc(-c3cccc(C(=O)O)c3)o1)CO2 (stereo unspecified)

Result:
1. 91.8
2. 87
3. 95.1
4. 95.5
5. 87.8

I would be grateful if you could provide viability for each of the following entries.
1. Cc1ccc(S(=O)(=O)/N=C2/NC(=O)/C(=C/c3cc([N+](=O)[O-])ccc3O)S2)cc1
2. O=C(O)c1[nH]c2ccccc2c1C(c1c(F)cccc1Cl)c1c(C(=O)O)[nH]c2ccccc12
3. O=C(Nc1cccc(C(F)(F)F)c1)c1cccc(NS(=O)(=O)c2ccc(O)c(C(=O)O)c2)c1
4. CS(=O)(=O)C1=NSC2=NC(=O)/C(=C\c3cccn3-c3ccc(Cl)cc3)C(=N)N21
5. CCCCCc1c2c(cc(O)c1C(=O)O)OC(=O)c1c(cc(OC)cc1C(=O)CCCC)O2

Result:
86
104
85.7
88
84.4

Values were extracted from PubChem BioAssay AID2286.
